- measurementDescription: Cytotoxic activity, standard tetrazolium (MTT) assay on B16 cells
- Format: cell-based, murine
- assayContext: mouse, B16 melanoma cells, 24 h incubation with compound, 1-200 µg/mL
Non-standard residues stand in square brackets, D forms with d. Residues, ends and D or L forms follow the SMILES beside them. *: point of attachment. Tyr(3-Br) = N[C@@H](Cc1ccc(O)c(Br)c1)C(=O)O; Boc = CC(C)(C)OC(=O)*
measuredQuantity: IC50 at 24 h

Please look at this compound and report its IC50 at 24 h: O=C1N[C@@H](Cc2ccc(O)cc2)C(=O)N2CCC[C@H]12
> 200 µg/mL

Please look at this compound and report its IC50 at 24 h: CC(C)[C@@H]1NC(=O)[C@@H]2CCCN2C1=O
> 200 µg/mL

Please look at this compound and report its IC50 at 24 h: COC(=O)[C@@H]1CCCN1C(=O)[C@H](Cc1ccc(O)c(Br)c1)NC(=O)OC(C)(C)C [Compound 13b] (Boc-[Tyr(3-Br)]-Pro-OMe)
18 µg/mL
